// data source = ChEMBL document CHEMBL1129775

- system: Cholecystokinin receptor type A (Rattus norvegicus)
- Sequence (P30551 whole entry): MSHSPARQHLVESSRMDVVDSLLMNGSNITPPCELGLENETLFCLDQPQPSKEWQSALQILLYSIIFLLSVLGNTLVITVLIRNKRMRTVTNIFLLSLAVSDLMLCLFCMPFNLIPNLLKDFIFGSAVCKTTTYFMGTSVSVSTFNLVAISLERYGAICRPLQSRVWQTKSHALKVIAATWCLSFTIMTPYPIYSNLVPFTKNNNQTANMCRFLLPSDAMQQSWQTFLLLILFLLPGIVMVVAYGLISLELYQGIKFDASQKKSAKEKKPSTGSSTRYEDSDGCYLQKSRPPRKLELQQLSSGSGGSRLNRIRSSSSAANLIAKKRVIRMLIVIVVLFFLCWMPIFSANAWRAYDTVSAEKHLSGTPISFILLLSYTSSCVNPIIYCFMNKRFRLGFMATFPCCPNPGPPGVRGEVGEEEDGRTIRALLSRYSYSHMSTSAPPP
value kind: Ki (µM)

a = O=C(Nc1ccccc1)NC1C(=O)N(CC23CC4CC(CC(C4)C2)C3)c2ccccc2N(CC23CC4CC(CC(C4)C2)C3)C1=O (stereo not drawn)
b = O=C(NC1C(=O)N(CC23CC4CC(CC(C4)C2)C3)c2ccccc2N(C2CCCCC2)C1=O)Oc1ccccc1 (stereo not drawn)
Please state the entry with greater Ki among a and b . # reply format: chosen label
a
